This collection of values is drawn from patent US20260070922A1.

# measured.on: Orexin type 1 (OX1R) receptor (Homo sapiens)
# Construct: expressed in transfected cells; host or cells: CHO cells (G418 selection)
# run.description: In vitro orexin antagonism assay: intracellular calcium measurement (FLIPR), orexin-A 3 nM as agonist
# Assay type: cell-based
# study.conditions: second value of IC50/Kb cell
assay.endpoint: Kb (nM)

>>> print(df.to_string())
                                   compound  measured_number
0  C[C@@]1(Cn2ccc(-c3ccccn3)n2)CCCN1C(=O)c1nn2ccccc2c1-c1ccccc1               72
1  O=C(c1nn2cccnc2c1-c1ccccn1)N1CCC[C@H]1Cn1cc(-c2ccccn2)cn1                4
2  O=C(c1c(-c2ccccc2)nn2ccccc12)N1CCC[C@H]1Cn1ccc(-c2ccc(C(F)(F)F)cc2)n1               22
3  O=C(c1nn2ccccc2c1-c1ccccc1)N1CCC[C@H]1CNc1ccc(C(F)(F)F)cn1                1
4  O=C(c1nn2ccccc2c1-c1ccccc1)N1CCC[C@H]1COc1ccc(C(F)(F)F)cn1                1

a = O=C(c1nn2ccccc2c1-c1ccccn1)N1CCC[C@H]1Cn1cc(-c2ccc(F)cn2)cn1
b = O=C(c1c(-c2ccccc2F)nn2c1COCC2)N1CCC[C@H]1Cn1ccc(-c2ccc(F)cn2)n1
Please compare: a and b . Report which one has the smaller Kb value. Refer to your chosen entry by its label in the reply. a

---

# measured.on: Orexin type 1 (OX1R) receptor (Homo sapiens, UniProt O43613)
# Construct: expressed in transfected cells; host or cells: CHO cells (G418 selection)
# run.description: In vitro orexin antagonism assay: intracellular calcium measurement (FLIPR), orexin-A 3 nM as agonist
# Assay type: cell-based
# study.conditions: @ 1 uM
# Description: In Vitro Orexin Antagonism Measurement Assay: Intracellular Calcium Measurements: […] Within the Fluorescent Imaging Plate Reader (FLIPR Tetra, Molecular Devices), antagonists are added to the plate in a volume of 10 μL/well, incubated for 120 min and finally 10 μL/well of agonist is added. […] The calculated IC50values may fluctuate depending on the daily cellular assay performance. […]
assay.endpoint: OX1R, % Inh. @ 1 uM (%)
Answer with a number only, understood to be in %.

Known OX1R, % Inh. @ 1 uM results, listed for orientation:
In [3]: df
Out[3]:
                                   molecule                               measured_on  measurement_unit  measured_number
0  O=C(c1nn2c(c1-c1ccccn1)COCC2)N1CCC[C@H]1Cn1cc(-c2ccc(F)cn2)cn1  Orexin type 1 (OX1R) receptor (Homo sapiens, UniProt O43613)                 %               84
1  O=C(c1nn2c(c1-c1ccccn1)COCC2)N1CCC[C@H]1Cn1ccc(-c2ccc(F)cn2)n1 [Example 196]  Orexin type 1 (OX1R) receptor (Homo sapiens, UniProt O43613)                 %               99
2  O=C(c1c(-c2ccc(F)cc2)nc2ccccn12)N1CCC[C@H]1Cn1ccc(-c2ccc(F)cc2)n1  Orexin type 1 (OX1R) receptor (Homo sapiens, UniProt O43613)                 %               85
3  O=C(c1c(-c2ccccc2F)nn2ccccc12)N1CCC[C@H]1Cn1ccc(-c2ccc(F)cc2)n1  Orexin type 1 (OX1R) receptor (Homo sapiens, UniProt O43613)                 %               98

Please give the documented OX1R, % Inh. @ 1 uM of O=C(c1c(-c2ccccc2F)nc2ccccn12)N1CCC[C@H]1Cn1ccc(-c2ccc(F)cc2)n1 96.96

Look up and report measured OX1R, % Inh. @ 1 uM for this entry: O=C(c1c(-c2ccccc2)nn2ccccc12)N1CCC[C@H]1Cn1ccc(-c2ccc(F)cc2)n1 91

Retrieve OX1R, % Inh. @ 1 uM measured for O=C(c1c(-c2ccccc2)nn2c1COCC2)N1CCC[C@H]1Cn1ccc(-c2ccc(F)cc2)n1 and print it. 73

---

# measured.on: Orexin type 1 (OX1R) receptor (Homo sapiens)
# Construct: expressed in transfected cells; host or cells: CHO cells (G418 selection)
# Sequence (O43613 1-425): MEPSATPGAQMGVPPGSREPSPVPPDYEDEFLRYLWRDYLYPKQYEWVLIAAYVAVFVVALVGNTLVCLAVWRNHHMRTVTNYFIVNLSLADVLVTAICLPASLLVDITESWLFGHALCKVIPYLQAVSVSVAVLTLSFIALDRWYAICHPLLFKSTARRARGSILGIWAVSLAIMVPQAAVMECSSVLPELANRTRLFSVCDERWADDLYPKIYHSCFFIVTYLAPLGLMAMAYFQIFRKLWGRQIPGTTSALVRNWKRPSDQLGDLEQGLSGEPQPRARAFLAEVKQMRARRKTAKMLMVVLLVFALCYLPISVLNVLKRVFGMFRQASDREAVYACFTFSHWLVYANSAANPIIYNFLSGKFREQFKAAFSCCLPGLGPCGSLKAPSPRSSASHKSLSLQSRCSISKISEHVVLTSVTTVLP
# run.description: In vitro orexin antagonism assay: intracellular calcium measurement (FLIPR), orexin-A 3 nM as agonist
# Type: cell-based
# study.conditions: second value of IC50/Kb cell
assay.endpoint: Kb (nM)

Examples from the recorded data:
>>> df
                                   compound  measured_number
0  O=C(c1nc2ccccn2c1-c1ccccc1)N1CCC[C@H]1Cn1ccc(-c2ccccn2)n1                1
1  C[C@@H]1CCCN(C(=O)c2c(-c3ccccc3)nn3ccccc23)[C@@H]1CNc1ncc(F)cn1                2
2  O=C(c1c(-c2ccccc2)nc2ccc(F)cn12)N1CCC[C@H]1Cn1ccc(-c2ccc(F)cn2)n1               52

P = O=C(c1c(-c2ncccn2)nn2ccccc12)N1CCC[C@H]1Cn1ccc(-c2ccccn2)n1
Q = O=C(c1nn2ccccc2c1-c1ccccc1)N1CCC[C@H]1Cc1nc(-c2ccc(F)cn2)no1
R = O=C(c1nn2c(c1-c1ccccn1)COCC2)N1CCC[C@H]1Cn1cc(-c2ccccn2)cn1
S = O=C(c1c(-c2ccccn2)nn2ccccc12)N1CCC[C@H]1Cn1ccc(-c2ccccc2)n1
T = C[C@@]1(COc2ccc(C(F)(F)F)cn2)CCCN1C(=O)c1nn2cccnc2c1-c1ccccc1
Given 5 compounds, produce a descending ranking by Kb. Thanks in advance for listing the labels in the requested order. T, R, P, S, Q
(T: 74 nM, R: 47 nM, P: 2 nM, S: 1 nM, Q: 0.3 nM)

---

# measured.on: human orexin-2 receptor (OX2R) (Homo sapiens, UniProt O43614)
# Construct: expressed in transfected cells; host or cells: CHO cells (G418 selection)
# Sequence (O43614 whole entry): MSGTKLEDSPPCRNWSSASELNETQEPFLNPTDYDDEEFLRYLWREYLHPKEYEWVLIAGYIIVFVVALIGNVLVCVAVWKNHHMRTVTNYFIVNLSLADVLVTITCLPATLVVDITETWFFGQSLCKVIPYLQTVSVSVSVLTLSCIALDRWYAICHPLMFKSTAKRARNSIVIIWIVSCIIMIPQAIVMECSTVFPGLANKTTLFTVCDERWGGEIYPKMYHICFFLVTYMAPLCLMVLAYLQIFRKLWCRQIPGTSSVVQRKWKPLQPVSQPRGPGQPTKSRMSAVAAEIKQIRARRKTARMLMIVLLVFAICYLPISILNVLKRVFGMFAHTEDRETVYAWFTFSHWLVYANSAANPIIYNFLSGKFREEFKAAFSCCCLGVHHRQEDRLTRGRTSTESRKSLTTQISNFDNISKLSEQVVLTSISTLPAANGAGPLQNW
# run.description: In vitro orexin antagonism assay: intracellular calcium measurement (FLIPR), orexin-A 3 nM as agonist
# Format: cell-based
# study.conditions: read-out: OX2R, % Inh. @ 1 uM
assay.endpoint: inhibition at 1 µM (%)

In [3]: df
Out[3]:
                                   compound  measured_number
0  C[C@@]1(COc2ccc(C(F)(F)F)cn2)CCCN1C(=O)c1nn2cccnc2c1-c1ccccc1               27

A = O=C(c1c(-c2ccccc2)nc2ncccn12)N1CCCC[C@H]1COc1ccc(C(F)(F)F)cn1
B = C[C@@]1(COc2ccc(C(F)(F)F)cn2)CCCN1C(=O)c1nn2ccccc2c1-c1ccccc1
Out of A and B , name the one with the higher inhibition at 1 µM. Indicate your choice by writing its label. B

---

# measured.on: Orexin type 1 (OX1R) receptor (Homo sapiens, UniProt O43613)
# run.description: In vitro orexin antagonism assay: intracellular calcium measurement (FLIPR), orexin-A 3 nM as agonist
# study.conditions: first value of IC50/Kb cell
assay.endpoint: IC50 (nM)

A selection of reference data follows.
>>> df
                                   compound  measured_number
0  O=C(c1nn2c(c1-c1ccccn1)COCC2)N1CCC[C@H]1COc1ccc(C(F)(F)F)cn1 [Example 223]                5
1  O=C(c1nn2ccccc2c1-c1ccccc1)N1CCC[C@H]1CNc1ccc(C(F)(F)F)cn1 [Example 29]                5
2  O=C(c1nn2c(c1-c1ccccc1)COCC2)N1CCC[C@H]1COc1ccc(C(F)(F)F)cn1 [Example 141]                5
3  O=C(c1c(-c2ccccc2F)nn2ccccc12)N1CCC[C@H]1Cn1ccc(-c2ccc(F)cc2)n1 [Example 63]                4

a = O=C(c1c(-c2ccccc2F)nn2ccccc12)N1CCC[C@H]1Cn1cc(-c2ccc(F)cn2)cn1 [Example 82]
b = [2H]C1([2H])CC[C@@]([2H])(Cn2ccc(-c3ccc(F)cc3)n2)N1C(=O)c1c(-c2ccccc2)nc2ccc(F)cn12 [Example 177]
c = O=C(c1c(-c2ccccc2)nn2ccccc12)N1CCCC[C@H]1COc1ccc(C(F)(F)F)cn1 [Example 24]
List the 3 entries from lowest IC50 to highest IC50 value. Returns: the labels listed in the requested order. c, b, a
